pKi: −log10 of the molar value.
Observed pKi, system Carbonic anhydrase 1 (Homo sapiens).

Exam item: Give pKi for the following compound: O=S(=O)(NO)NC1C=C[C@@H](O)CO1 (stereo partly drawn)
Marked response: < 5.00

Exam item: Give pKi for the following compound: C[C@@H]1OC(NS(=O)(=O)NO)C=C[C@H]1O (stereo partly drawn)
Marked response: < 5.00

Exam item: Give pKi for the following compound: CC(=O)O[C@H]1C=CC(NS(=O)(=O)NO)OC1 (stereo partly drawn)
Marked response: < 5.00

The values you see were collected from ChEMBL document CHEMBL3352092.
